# Target Or System: mouse PAR4 (Mus musculus, UniProt O88634)
# Construct: washed mouse platelets were prepared by collecting cardiac puncture blood; endogenous in cells; host or cells: washed mouse platelets (cardiac puncture blood)
# Sequence (O88634 17-396): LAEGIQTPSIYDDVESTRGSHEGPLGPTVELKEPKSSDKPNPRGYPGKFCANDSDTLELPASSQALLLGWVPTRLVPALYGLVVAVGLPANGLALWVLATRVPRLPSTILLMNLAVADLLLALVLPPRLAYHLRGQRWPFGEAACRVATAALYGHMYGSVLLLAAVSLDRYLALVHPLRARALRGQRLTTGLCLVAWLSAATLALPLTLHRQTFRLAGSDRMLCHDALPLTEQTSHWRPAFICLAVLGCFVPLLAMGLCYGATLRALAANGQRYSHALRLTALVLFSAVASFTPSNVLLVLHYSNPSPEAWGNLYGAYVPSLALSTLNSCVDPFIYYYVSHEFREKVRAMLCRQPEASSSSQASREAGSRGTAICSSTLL
# Procedure Summary: Mouse platelet activity assay, flow cytometry, γ-thrombin activation
# Assay type: cell-based
# Condition Parameters: mouse platelets, 316 nM γ-thrombin, P-selectin; read-out: Mouse Platelets P-Sel IC50
Readout Kind: IC50 (nM)

| Structure Notation | Value Measured |
| --- | --- |
| N#Cc1ccc(-c2nc(NC(=O)c3nn(-c4ccccc4)c4c3CCCC4)n[nH]2)cc1 | 1420 |

A: Cn1nc(C(=O)Nc2n[nH]c(-c3ccccc3F)n2)cc1C1CC1
B: O=C(Nc1n[nH]c(-c2ccc(F)cc2F)n1)c1nn(-c2ccccc2)c2c1CCCC2
C: Cc1cc(C(=O)Nc2n[nH]c(OC(F)F)n2)nn1-c1ccccc1
D: O=C(Nc1nc[nH]n1)c1nn(-c2ccccc2)c2c1CCC2
Prompt line: Please give the order of these molecules when sorted by IC50, largest value leading. Order the labels as requested and list them.
Response line: D, C, A, B

###

# Target Or System: mouse PAR4 (Mus musculus, UniProt O88634)
# Construct: washed mouse platelets were prepared by collecting cardiac puncture blood; endogenous in cells; host or cells: washed mouse platelets (cardiac puncture blood)
# Procedure Summary: Mouse platelet activity assay, flow cytometry, γ-thrombin activation
# Assay type: cell-based
# Condition Parameters: Table 4 summary; read-out: mouse PAR4 IC50
pIC50: −log10 of the molar value.
Readout Kind: pIC50

Worked examples follow.
| Structure Notation | pIC50 |
| --- | --- |
| O=C(Nc1n[nH]c(-c2ccc(F)cc2F)n1)c1nn(-c2ccccc2)c2c1CCCC2 | 6.44 |
| O=C(Nc1n[nH]c(-c2cccc(OC(F)F)c2)n1)c1nn(-c2ccccc2)c2c1CCCC2 | 6.53 |

P: COc1cccc(-c2nc(NC(=O)c3nn(-c4ccccc4)c4c3CCCC4)n[nH]2)c1
Q: Cc1cc(C(=O)Nc2n[nH]c(OC(F)F)n2)nn1-c1ccccc1
R: O=C(Nc1nc[nH]n1)c1nn(-c2ccccc2)c2c1CCC2
Prompt line: Please give the order of these compounds when sorted by pIC50, largest value leading. Order the labels as requested and list them.
Response line: P, Q, R

###

# Target Or System: PAR4 (Homo sapiens)
# Sequence (Q96RI0 18-385): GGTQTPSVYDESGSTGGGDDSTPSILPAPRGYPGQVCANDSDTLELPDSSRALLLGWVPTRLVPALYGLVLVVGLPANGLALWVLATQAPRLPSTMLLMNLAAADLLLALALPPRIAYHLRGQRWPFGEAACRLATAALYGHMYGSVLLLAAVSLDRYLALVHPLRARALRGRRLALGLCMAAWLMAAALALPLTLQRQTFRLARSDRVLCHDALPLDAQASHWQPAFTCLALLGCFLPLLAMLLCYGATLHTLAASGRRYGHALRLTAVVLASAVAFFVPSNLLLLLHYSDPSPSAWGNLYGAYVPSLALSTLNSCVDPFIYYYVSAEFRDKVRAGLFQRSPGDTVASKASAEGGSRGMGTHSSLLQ
# Procedure Summary: Human platelet activity assay, flow cytometry, γ-thrombin activation
# Assay type: cell-based
# Design: endogenous in cells; host or cells: washed human platelets from healthy volunteers
# Condition Parameters: human platelets, 100 nM γ-thrombin, GPIIbIIIa activation (PAC1); read-out: Human Platelets PAC1 IC50
Readout Kind: IC50 (nM)

Worked examples follow.
| Structure Notation | Target Or System | IC50 (nM) |
| --- | --- | --- |
| Cc1nc(NC(=O)c2cc(-c3ccccc3)n(-c3ccccc3)n2)n[nH]1 | PAR4 (Homo sapiens) | 2280 |
| Cn1nc(C(=O)Nc2n[nH]c(-c3c(F)cccc3F)n2)cc1C1CC1 | PAR4 (Homo sapiens) | 134 |
| Cc1n[nH]c(NC(=O)c2nn(-c3cccc(F)c3)c3c2CCC3)n1 | PAR4 (Homo sapiens) | 923 |
| O=C(Nc1n[nH]c(-c2cccc(C(F)(F)F)c2)n1)c1nn(-c2ccccc2)c2c1CCCC2 | PAR4 (Homo sapiens) | 152 |
| O=C(Nc1n[nH]c(-c2ccc(F)cc2F)n1)c1nn(-c2ccccc2)c2c1CCCC2 | PAR4 (Homo sapiens) | 117 |
| Cc1nc(NC(=O)c2cc(C(=O)OC(C)(C)C)n(-c3ccccc3)n2)n[nH]1 | PAR4 (Homo sapiens) | 1130 |

A: O=C(Nc1nc[nH]n1)c1nn(-c2ccccc2)c2c1CCC2
B: Cc1n[nH]c(NC(=O)c2nn(-c3ccc(F)cc3)c3c2CCC3)n1
Prompt line: Please choose the item with the lower IC50 value from this pair: A and B To answer, give the label that identifies your chosen option.
Response line: A

###

# Target Or System: mouse PAR4 (Mus musculus)
# Construct: washed mouse platelets were prepared by collecting cardiac puncture blood; endogenous in cells; host or cells: washed mouse platelets (cardiac puncture blood)
# Procedure Summary: Mouse platelet activity assay, flow cytometry, γ-thrombin activation
# Assay type: cell-based
# Condition Parameters: mouse platelets, 316 nM γ-thrombin, P-selectin; read-out: Mouse Platelets P-Sel IC50
pIC50: −log10 of the molar value.
Readout Kind: pIC50

Worked examples follow.
| Compound | Target Or System | Value Measured |
| --- | --- | --- |
| COc1cccc(-c2nc(NC(=O)c3nn(-c4ccccc4)c4c3CCCC4)n[nH]2)c1 [Compound 32] | mouse PAR4 (Mus musculus) | 6.53 |
| O=C(Nc1n[nH]c(C2CC2)n1)c1nn(-c2ccccc2)c2c1CCC2 [Compound 24] | mouse PAR4 (Mus musculus) | 5.95 |
| Cn1nc(C(=O)Nc2n[nH]c(-c3c(F)cccc3F)n2)cc1C1CC1 [Compound 12] | mouse PAR4 (Mus musculus) | 6.43 |
| Cn1nc(C(=O)Nc2n[nH]c(-c3ccccc3Cl)n2)cc1C1CC1 [Compound 14] | mouse PAR4 (Mus musculus) | 5.89 |
| Cn1nc(C(=O)Nc2n[nH]c(-c3ccc(C#N)cc3)n2)cc1C1CC1 [Compound 16] | mouse PAR4 (Mus musculus) | 5.93 |

a: O=C(Nc1n[nH]c(-c2cccc(C(F)(F)F)c2)n1)c1nn(-c2ccccc2)c2c1CCCC2 [Compound 27]
b: Cc1nc(NC(=O)c2cc(C(=O)OC(C)(C)C)n(-c3ccccc3)n2)n[nH]1 [Compound 10]
Prompt line: Please choose the item with the lower pIC50 value from this pair: a and b To answer, give the label that identifies your chosen option.
Response line: b
(b: 5.21, a: 6.43)

###

# Procedure Summary: Modified microsomal clearance assay with or without NADPH, human liver microsomes
# Type: in vitro ADME
# Condition Parameters: human, liver microsomes, pH 7.4, HLM, reaction initiated by test compound, -NADPH
Readout Kind: CLint scaled at 1 µM (mL/min/kg)

| Structure Notation | Result Unit | CLint scaled at 1 µM |
| --- | --- | --- |
| O=C(Nc1nc[nH]n1)c1nn(-c2ccccc2)c2c1CCC2 | mL/min/kg | 12.4 |

A: O=C(Nc1n[nH]c(-c2ccc(F)cc2F)n1)c1nn(-c2ccccc2)c2c1CCCC2
B: Cn1nc(C(=O)Nc2n[nH]c(-c3c(F)cccc3F)n2)cc1C1CC1
Prompt line: Param pair: A , B . Output: the one whose CLint scaled at 1 µM is numerically greater. To answer, give the label that identifies your chosen option.
Response line: B
(B: 352 mL/min/kg, A: 15.6 mL/min/kg)

###

# Target Or System: mouse PAR4 (Mus musculus)
# Construct: washed mouse platelets were prepared by collecting cardiac puncture blood; endogenous in cells; host or cells: washed mouse platelets (cardiac puncture blood)
# Procedure Summary: Mouse platelet activity assay, flow cytometry, γ-thrombin activation
# Format: cell-based
# Condition Parameters: mouse platelets, 316 nM γ-thrombin, GPIIbIIIa (JonA); read-out: Mouse Platelets JonA IC50
Readout Kind: IC50 (µM)

| Structure Notation | Target Or System | Readout Kind | Value Measured |
| --- | --- | --- | --- |
| N#Cc1ccc(-c2nc(NC(=O)c3nn(-c4ccccc4)c4c3CCCC4)n[nH]2)cc1 | mouse PAR4 (Mus musculus) | IC50 | 1.84 |
| Cc1nc(NC(=O)c2cc(C(=O)OC(C)(C)C)n(-c3ccccc3)n2)n[nH]1 | mouse PAR4 (Mus musculus) | IC50 | 11.3 |
| Cn1nc(C(=O)Nc2n[nH]c(-c3ccccc3F)n2)cc1C1CC1 | mouse PAR4 (Mus musculus) | IC50 | 0.715 |

A: O=C(Nc1n[nH]c(C2CC2)n1)c1nn(-c2cccc(F)c2)c2c1CCCC2
B: O=C(Nc1nc[nH]n1)c1nn(-c2ccccc2)c2c1CCC2
Prompt line: Param pair: A , B . Output: the one whose IC50 is numerically greater. To answer, give the label that identifies your chosen option.
Response line: B
(B: 3.33 µM, A: 0.981 µM)

a: Cc1cc(C(=O)Nc2n[nH]c(OC(F)F)n2)nn1-c1ccccc1
b: O=C(Nc1n[nH]c(C2CC2)n1)c1nn(-c2ccccc2)c2c1CCCC2
c: CCc1cc(C(=O)Nc2n[nH]c(-c3c(F)cccc3F)n2)nn1C
Prompt line: Please give the order of these molecules when sorted by IC50, largest value leading. Order the labels as requested and list them.
Response line: a, c, b
(a: 1.45 µM, c: 0.672 µM, b: 0.354 µM)

1: Cn1nc(C(=O)Nc2n[nH]c(-c3ccccc3Cl)n2)cc1C1CC1
2: O=C(Nc1n[nH]c(-c2ccc(F)cc2F)n1)c1nn(-c2ccccc2)c2c1CCCC2
Prompt line: Please choose the item with the lower IC50 value from this pair: 1 and 2 To answer, give the label that identifies your chosen option.
Response line: 2

I: Cc1n[nH]c(NC(=O)c2nn(-c3cccc(F)c3)c3c2CCC3)n1
II: O=C(Nc1n[nH]c(-c2cccc(OC(F)F)c2)n1)c1nn(-c2ccccc2)c2c1CCCC2
Prompt line: Please choose the item with the lower IC50 value from this pair: I and II To answer, give the label that identifies your chosen option.
Response line: II
(II: 0.296 µM, I: 1.19 µM)

A: Cn1nc(C(=O)Nc2n[nH]c(-c3c(F)cccc3F)n2)cc1C1CC1
B: CC(C)c1cc(C(=O)Nc2n[nH]c(-c3c(F)cccc3F)n2)nn1C
C: COc1cccc(-c2nc(NC(=O)c3nn(-c4ccccc4)c4c3CCCC4)n[nH]2)c1
Prompt line: Please give the order of these molecules when sorted by IC50, largest value leading. Order the labels as requested and list them.
Response line: B, A, C
(B: 1.09 µM, A: 0.401 µM, C: 0.269 µM)

a: O=C(Nc1n[nH]c(-c2cccc(C(F)(F)F)c2)n1)c1nn(-c2ccccc2)c2c1CCCC2
b: Cn1nc(C(=O)Nc2n[nH]c(-c3ccc(C#N)cc3)n2)cc1C1CC1
Prompt line: Please choose the item with the lower IC50 value from this pair: a and b To answer, give the label that identifies your chosen option.
Response line: a
(a: 0.367 µM, b: 1.14 µM)
